# study target: UniProt P06186
# measurement notes: Percent inhibition of [3H]- progesterone binding to rabbit uterine progesterone receptor, at 10e-6 M compound concentration
# setup conditions: at 1 µM
observable: inhibition
A complete answer gives the number and then names the unit.

COC(=O)C1=C(C)N=C(C)/C(=C(/O)OC)C1c1ccc(C=O)cc1 (centres undefined) : 10%
COC(=O)C1=C(C)N=C(C)/C(=C(/O)OC)C1c1ccc2nc(-c3ccc4c(c3)OCO4)n(Cc3ccc4c(c3)OCO4)c2c1 (centres undefined) : 12%
COC(=O)C1=C(C)N=C(C)/C(=C(/O)OC)C1c1ccc(C2C(C(=O)OC)=C(C)N=C(C)/C2=C(/O)OC)cc1 (centres undefined) : 26%

Problem: Suppose we examine the molecule COC(=O)C1=C(C)N=C(C)/C(=C(\O)OC)C1c1ccc(C(=O)OC)cc1 (centres undefined) ; what inhibition value has been reported?
Solution: 15%

---

# study target: Progesterone receptor (Oryctolagus cuniculus)
# measurement notes: Percent inhibition of [3H]- progesterone binding to rabbit uterine progesterone receptor, at 10e-5 M compound concentration
# setup conditions: at 10 µM
Please respond with reported inhibition for every item in the list.
Answers are plain numbers, in %.

Would you please look over these solved cases?
COC(=O)C1=C(C)N=C(C)/C(=C(/O)OC)C1c1ccc2nc(-c3ccc(OC)cc3)n(Cc3ccc(OC)cc3)c2c1 (centres undefined) : 20
COC(=O)C1=C(C)N=C(C)/C(=C(/O)OC)C1c1ccc(NCc2ccccc2)c([N+](=O)[O-])c1 (centres undefined) : 12
COC(=O)C1=C(C)N=C(C)/C(=C(/O)OC)C1c1ccc2nc(-c3ccc4c(c3)OCO4)n(Cc3ccc4c(c3)OCO4)c2c1 (centres undefined) : 18

Here is another compound to look at.
Problem: If you can, please state the reported inhibition value of COC(=O)C1=C(C)N=C(C)/C(=C(/O)OC)C1c1ccc2[nH]c(S)nc2c1 (centres undefined) .
Solution: 20

---

# Test system: Progesterone receptor (Mesocricetus auratus)
# measurement notes: Percent inhibition of [3H]- progesterone binding to Syrian golden hamster uterine cytosol progesterone receptor, at 10e-8 M compound concentration
# setup conditions: at 0.01 µM
observable: inhibition
Please provide the amount together with its unit, number first.

# annotated cases, reported inhibition shown
COC(=O)C1=C(C)N=C(C)/C(=C(/O)OC)C1c1ccc2[nH]c(S)nc2c1 (stereo not given) : 10%
COC(=O)C1=C(C)N=C(C)/C(=C(\O)OC)C1c1ccc(N)c([N+](=O)[O-])c1 (stereo not given) : 0%
COC(=O)C1=C(C)N=C(C)/C(=C(/O)OC)C1c1ccc2nc(-c3ccc(OC)cc3)n(Cc3ccc(OC)cc3)c2c1 (stereo not given) : 12%
COC(=O)C1=C(C)N=C(C)/C(=C(/O)OC)C1c1ccc2nc(-c3ccc(OC)c(OC)c3)n(Cc3ccc(OC)c(OC)c3)c2c1 (stereo not given) : 5%

Moving on to another molecule below.
Problem: Requested field: inhibition. Item: COC(=O)C1=C(C)N=C(C)/C(=C(/O)OC)C1c1ccc2[nH]nnc2c1 (stereo not given)
Solution: 12%

---

For each record, write down the corresponding inhibition.
# study target: Progesterone receptor (Oryctolagus cuniculus) (UniProt P06186)
# Sequence (P06186 whole entry): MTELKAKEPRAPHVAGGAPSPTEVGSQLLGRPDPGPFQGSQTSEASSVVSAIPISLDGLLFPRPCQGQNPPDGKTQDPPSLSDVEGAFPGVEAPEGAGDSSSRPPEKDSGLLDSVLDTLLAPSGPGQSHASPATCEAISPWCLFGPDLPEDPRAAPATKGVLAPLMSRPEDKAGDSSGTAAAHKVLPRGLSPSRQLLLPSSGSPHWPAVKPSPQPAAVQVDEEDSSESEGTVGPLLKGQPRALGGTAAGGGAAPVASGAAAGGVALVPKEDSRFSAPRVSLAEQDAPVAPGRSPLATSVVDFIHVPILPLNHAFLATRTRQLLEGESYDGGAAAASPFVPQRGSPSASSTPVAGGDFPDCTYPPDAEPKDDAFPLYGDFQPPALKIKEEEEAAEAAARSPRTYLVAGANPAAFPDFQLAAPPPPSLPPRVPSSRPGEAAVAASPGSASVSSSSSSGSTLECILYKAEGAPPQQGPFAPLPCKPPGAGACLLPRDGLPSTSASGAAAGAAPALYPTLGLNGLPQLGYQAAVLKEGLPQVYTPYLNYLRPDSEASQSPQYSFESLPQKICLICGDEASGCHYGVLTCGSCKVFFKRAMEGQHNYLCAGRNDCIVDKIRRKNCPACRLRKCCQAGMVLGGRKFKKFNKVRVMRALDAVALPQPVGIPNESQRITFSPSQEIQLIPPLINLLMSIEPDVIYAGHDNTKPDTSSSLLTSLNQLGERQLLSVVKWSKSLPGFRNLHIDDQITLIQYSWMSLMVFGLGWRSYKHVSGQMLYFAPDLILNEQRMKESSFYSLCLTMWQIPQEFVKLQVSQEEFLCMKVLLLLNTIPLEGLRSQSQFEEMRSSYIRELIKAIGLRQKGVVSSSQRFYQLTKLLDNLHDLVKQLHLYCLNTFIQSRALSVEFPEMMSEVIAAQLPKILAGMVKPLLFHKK
# measurement notes: Percent inhibition of [3H]- progesterone binding to rabbit uterine progesterone receptor, at 10e-5 M compound concentration
# setup conditions: at 10 µM
Answers are plain numbers, in %.

COC(=O)C1=C(C)N=C(C)/C(=C(/O)OC)C1c1ccc2nc(-c3ccc(O)c(OC)c3)n(Cc3ccc(O)c(OC)c3)c2c1 (centres undefined) : 20
COC(=O)Nc1nc2cc(C3C(C(=O)OC)=C(C)N=C(C)/C3=C(/O)OC)ccc2[nH]1 (centres undefined) : 20
CNc1ccc(C2C(C(=O)OC)=C(C)N=C(C)/C2=C(/O)OC)cc1[N+](=O)[O-] (centres undefined) : 14

Pending molecule:
Problem: Given the entry COC(=O)C1=C(C)N=C(C)/C(=C(/O)OC)C1c1cc2ccccc2n2nnnc12 (centres undefined) , report its measured inhibition.
Solution: 14

---

# System: Progesterone receptor (Mesocricetus auratus)
# measurement notes: Percent inhibition of [3H]- progesterone binding to Syrian golden hamster uterine cytosol progesterone receptor, at 10e-5 M compound concentration
# setup conditions: at 10 µM
Think of 20% as a floor: if inhibition stands on it or above, it is satisfied; beneath it, not satisfied.

Worked examples follow.
COC(=O)C1=C(C)N=C(C)/C(=C(/O)OC)C1c1ccc2nc(-c3ccccc3)c(-c3ccccc3)nc2c1 (stereo unspecified) : not satisfied
COC(=O)C1=C(C)N=C(C)/C(=C(/O)OC)C1c1ccc2[nH]c(S)nc2c1 (stereo unspecified) : satisfied

Problem: Quick check: does COC(=O)C1=C(C)N=C(C)/C(=C(/O)OC)C1c1ccc2nc(-c3ccc(OC)cc3)n(Cc3ccc(OC)cc3)c2c1 (stereo unspecified) have inhibition greater than or equal to 20%?
Solution: satisfied

Problem: Kindly determine if inhibition recorded for COC(=O)C1=C(C)N=C(C)/C(=C(/O)OC)C1c1ccc(N)c(N)c1 (stereo unspecified) is above or exactly 20%.
Solution: not satisfied

Problem: Can COC(=O)C1=C(C)N=C(C)/C(=C(\O)OC)C1c1ccc(C(=O)OC)cc1 (stereo unspecified) be said to have inhibition at or above 20%?
Solution: satisfied

Problem: // inclusive: inhibition at least 20%? input: CNc1ccc(C2C(C(=O)OC)=C(C)N=C(C)/C2=C(/O)OC)cc1[N+](=O)[O-] (stereo unspecified)
Solution: not satisfied

Problem: Please check the record COC(=O)C1=C(C)N=C(C)/C(=C(\O)OC)C1c1ccc(N)c([N+](=O)[O-])c1 (stereo unspecified) and state if its inhibition is at or above 20%.
Solution: not satisfied

---

# study target: Progesterone receptor (Oryctolagus cuniculus)
# measurement notes: Percent inhibition of [3H]- progesterone binding to rabbit uterine progesterone receptor, at 10e-9 M compound concentration
# setup conditions: at 0.001 µM
Label true (1) when inhibition >= 5%; otherwise false (0).

Some solved entries appear below for comparison.
COC(=O)C1=C(C)N=C(C)/C(=C(\O)OC)C1c1cc(C(=O)c2ccc(C)cc2)c(OC)cc1OC (configuration not stated) : true (1)
COC(=O)C1=C(C)N=C(C)/C(=C(/O)OC)C1c1ccc2nc(-c3ccccc3)c(-c3ccccc3)nc2c1 (configuration not stated) : false (0)
COC(=O)C1=C(C)N=C(C)/C(=C(/O)OC)C1c1ccc2nc3n(c2c1)C(=O)c1ccccc1-3 (configuration not stated) : false (0)
COC(=O)C1=C(C)N=C(C)/C(=C(/O)OC)C1c1ccc(C2C(C(=O)OC)=C(C)N=C(C)/C2=C(/O)OC)cc1 (configuration not stated) : false (0)
COC(=O)C1=C(C)N=C(C)/C(=C(/O)OC)C1c1ccc2nc(-c3ccc4c(c3)OCO4)n(Cc3ccc4c(c3)OCO4)c2c1 (configuration not stated) : false (0)
COC(=O)C1=C(C)N=C(C)/C(=C(\O)OC)C1c1ccc(N)c([N+](=O)[O-])c1 (configuration not stated) : false (0)
COC(=O)C1=C(C)N=C(C)/C(=C(/O)OC)C1c1ccc(Cl)c([N+](=O)[O-])c1 (configuration not stated) : false (0)
COC(=O)C1=C(C)N=C(C)/C(=C(/O)OC)C1c1ccc2[nH]nnc2c1 (configuration not stated) : true (1)

Continue with the next molecule.
Problem: // inclusive: inhibition at least 5%? input: COC(=O)C1=C(C)N=C(C)/C(=C(/O)OC)C1c1ccc(NCc2ccccc2)c([N+](=O)[O-])c1 (configuration not stated)
Solution: false (0)

---

# study target: Progesterone receptor (Oryctolagus cuniculus) (UniProt P06186)
# measurement notes: Percent inhibition of [3H]- progesterone binding to rabbit uterine progesterone receptor, at 10e-5 M compound concentration
# setup conditions: at 10 µM
Label Fulfilled for high-side inhibition (at or above 20%) and Not fulfilled for low-side inhibition (below it).

Solved cases (3 shown):
COC(=O)C1=C(C)N=C(C)/C(=C(/O)OC)C1c1ccc2nc(-c3ccc(OC)c(OC)c3)n(Cc3ccc(OC)c(OC)c3)c2c1 (centres undefined) : Not fulfilled
COC(=O)C1=C(C)N=C(C)/C(=C(\O)OC)C1c1ccc(C(=O)OC)cc1 (centres undefined) : Fulfilled
COC(=O)C1=C(C)N=C(C)/C(=C(/O)OC)C1c1ccc2nc3n(c2c1)C(=O)c1ccccc1-3 (centres undefined) : Not fulfilled

Problem: Can COC(=O)C1=C(C)N=C(C)/C(=C(/O)OC)C1c1cc2ccccc2nc1Cl (centres undefined) be said to have inhibition at or above 20%?
Solution: Not fulfilled

Problem: Identify whether the reported inhibition of the following compound is 20% or greater: COC(=O)C1=C(C)N=C(C)/C(=C(/O)OC)C1c1ccc2nc(-c3ccccc3)c(-c3ccccc3)nc2c1 (centres undefined)
Solution: Not fulfilled

Problem: Does the compound COC(=O)C1=C(C)N=C(C)/C(=C(\O)OC)C1c1cc(C(=O)c2ccc(C)cc2)c(OC)cc1OC (centres undefined) have recorded inhibition that is 20% or more?
Solution: Fulfilled

Problem: Does COC(=O)C1=C(C)N=C(C)/C(=C(/O)OC)C1c1ccc2[nH]nnc2c1 (centres undefined) have a reported inhibition of at least 20%?
Solution: Fulfilled

Problem: Please check the record COC(=O)C1=C(C)N=C(C)/C(=C(/O)OC)C1c1ccc(C2C(C(=O)OC)=C(C)N=C(C)/C2=C(/O)OC)cc1 (centres undefined) and state if its inhibition is at or above 20%.
Solution: Fulfilled

Problem: Form field: inhibition at least 20%? Entry: COC(=O)C1=C(C)N=C(C)/C(=C(\O)OC)C1c1cc2cc(-c3c(C)oc(C)c3C(=O)OC)ccc2nc1Cl (centres undefined)
Solution: Not fulfilled
